# Test system: LTB4 receptor
# Experiment: TXB2 release from guinea pig eosinophils stimulated with LTB4 (LTB4 receptor antagonist activity)
# Format: cell-based
# Experimental context: 10^−3 M test compound (37.5 μl) added to 300 μl cell suspension, then 10^−7 M LTB4 (37.5 μl), 37° C. 15 min, positive control 100, negative control 0, N.D. = TXB2 concentration at measurement limit or less
So I've got a bunch of molecules here, and I need their Amount of TXB2 release (%) values.
Express your answer in %, writing the number without its unit.

Look up Amount of TXB2 release (%) for this molecule: O=C(/C=C/c1ccccc1)Nc1c(C(=O)O)oc2ccccc12 [Example 121] 5.77

Looking for the measured Amount of TXB2 release (%) of COc1ccc2c(NC(=O)/C=C/c3ccccc3)c(C(C)=O)oc2c1 [Example 120] , can you help? 1.32

Look up Amount of TXB2 release (%) for this molecule: CCOC(=O)CCCOc1cccc2cc(/C(C)=C/C(=O)Nc3ccc(OC)cc3)oc12 [Example 28] −0.23

Please look up its Amount of TXB2 release (%): CCOC(=O)CCCOc1ccc(Br)c2cc(/C(C)=C/C(=O)N(CC)CC)oc12 [Example 35] 1.02

Need Amount of TXB2 release (%) of CC(=O)c1oc2ccc(/C(C)=C/C(=O)N3CCN(c4ccccc4)CC3)cc2c1N [Example 18] , thanks. 53.91

Look at this molecule and give its reported Amount of TXB2 release (%). COc1cccc(NC(=O)/C=C(\C)c2cc3cccc(OCCCC(=O)O)c3o2)c1 [Example 29] −0.19

Request the reported Amount of TXB2 release (%) associated with COc1cccc(NC(=O)/C=C(\C)c2cc3cccc(OC(c4ccccc4)c4ccccc4)c3o2)c1 [Example 38] 91.73

====

# Test system: LTB4 receptor
# Experiment: TXB2 release from guinea pig eosinophils stimulated with LTB4 (LTB4 receptor antagonist activity)
# Type: cell-based
# Experimental context: 10^−3 M test compound (37.5 μl) added to 300 μl cell suspension, then 10^−7 M LTB4 (37.5 μl), 37° C. 15 min, positive control 100, negative control 0, N.D. = TXB2 concentration at measurement limit or less
What Amount of TXB2 release (%) was measured for each of the following?
Give just the number in %; leave the unit off.

Entry CCN(CC)C(=O)/C=C(\C)c1ccc(OC(C)c2ccccc2)c2oc(C(C)=O)cc12 (stereo not drawn) [Example 1] : reported Amount of TXB2 release (%) = ? 0.42

Fill in: Amount of TXB2 release (%) of CCN(CC)C(=O)/C=C(\C)c1ccc2oc(C(C)=O)c(NC(=O)Cc3ccc(OC)cc3)c2c1 [Example 21] is ___ 56.57

Tell me the measured Amount of TXB2 release (%) of CC(=O)c1cc2c(/C(C)=C/C(=O)N3CCN(c4ccccc4)CC3)ccc(OC(c3ccccc3)c3ccccc3)c2o1 [Example 6] , please. 38.93

Given the entry COc1ccc(CCNC(=O)/C=C(\C)c2ccc3oc(C(C)=O)c(N)c3c2)cc1OC [Example 17] , report its measured Amount of TXB2 release (%). 27.92

Dear colleague, I am looking for the recorded Amount of TXB2 release (%) of the following compound: CCOC(=O)CCCOc1cccc2cc(/C(C)=C\C(=O)Nc3ccc(OC)c(OC)c3)oc12 [Example 46] 45.62

Param item = C/C=C/C(=O)NC(C)c1cc2cccc(OC)c2o1 (stereo not drawn) [Example 130] ; retrieve measured Amount of TXB2 release (%). 35.44

Suppose we examine the compound COc1cccc(NC(=O)/C=C(\C)c2cc3c(S(=O)(=O)NCCc4ccc(OC)c(OC)c4)ccc(OCCCCl)c3o2)c1 [Example 51] ; what Amount of TXB2 release (%) value has been reported? 38.93

Item CC(=O)c1cc2c(/C(C)=C/C(=O)N3CCOCC3)ccc(OC(c3ccccc3)c3ccccc3)c2o1 [Example 7] has what recorded Amount of TXB2 release (%)? 9.89

Quick one: Amount of TXB2 release (%) of COc1cccc(NC(=O)/C=C(/C)c2cc3c(S(=O)(=O)NCCc4ccc(OC)c(OC)c4)ccc(OCCCCl)c3o2)c1 [Example 52] ? 60.6

Given the entry CCN(CC)C(=O)/C=C(\C)c1cc2c(Br)ccc(OCCCC(=O)O)c2o1 [Example 36] , report its measured Amount of TXB2 release (%). −0.301

// lookup Amount of TXB2 release (%) for COc1ccc(CCNC(=O)/C=C/C=C(\Cl)c2cc3cccc(OC)c3o2)cc1OC [Example 56] 52.39

Which Amount of TXB2 release (%) value belongs to COc1cccc2cc(C(C)NC(=O)/C=C/c3ccccc3)oc12 (stereo not drawn) [Example 132] ? 14.05

Consider the compound shown here: CC(=O)c1cc2c(/C(C)=C/C(=O)N3CCN(Cc4ccccc4)CC3)ccc(OC(C)c3ccccc3)c2o1 (stereo not drawn) [Example 10] What is its recorded Amount of TXB2 release (%)? 23.43

Quick check: Amount of TXB2 release (%) of COc1cccc(NC(=O)/C=C/C=C(\Cl)c2cc3cc(Br)ccc3o2)c1 [Example 54] ? 60.6

Endpoint output: Amount of TXB2 release (%) of CC(=CC(=O)N1CCOCC1)c1cc2cccc(OC(c3ccccc3)c3ccccc3)c2o1 (stereo in doubt) [Example 42] . Value? 13.83

Name the recorded Amount of TXB2 release (%) for CCOC(=O)c1oc2ccccc2c1NC(=O)/C=C/c1ccccc1 [Example 119] . 9.8

Look up Amount of TXB2 release (%) for this compound: C/C=C/C(=O)Nc1c(C#N)oc2ccc(Br)cc12 [Example 117] 54.95

Item under review: CC(=O)c1cc2c(/C(C)=C/C(=O)N3CCN(c4ccccc4)CC3)ccc(OC(C)c3ccccc3)c2o1 (stereo not drawn) [Example 5] . Reported Amount of TXB2 release (%)? 81.6

Could you tell me which Amount of TXB2 release (%) is on file for CCN(CC)C(=O)/C=C(/C)c1cc2cccc(OC(C)C)c2o1 [Example 34] ? −0.063

# Amount of TXB2 release (%) lookup, item CCNS(=O)(=O)c1ccc(OCCCC(=O)OCC)c2oc(/C(C)=C\C(=O)N(CC)CC)cc12 [Example 48] 53.91

Give the measured Amount of TXB2 release (%) of CCN(CC)C(=O)/C=C(\C)c1ccc(OCC(=O)c2ccc3c(c2)OCO3)c2oc(C(C)=O)cc12 [Example 13] . 31.8

What value of Amount of TXB2 release (%) has been reported for the following compound? C/C=C/C(=O)Nc1c(C(=O)OCC)oc2ccccc12 [Example 118] 73.84

Entry CCOC(=O)CCCOc1ccc(/C(C)=C/C(=O)N(CC)CC)c2cc(C(C)=O)oc12 [Example 14] has what Amount of TXB2 release (%)? 44.81

Looking for the measured Amount of TXB2 release (%) of COc1ccc(CCNC(=O)/C=C/C=C(\Cl)c2cc3cc(Br)ccc3o2)cc1OC [Example 55] , can you help? 53.91

I am curious: what Amount of TXB2 release (%) value has been reported for CCN(CC)C(=O)/C=C(\C)c1cc2cccc(OC(c3ccccc3)c3ccccc3)c2o1 [Example 37] ? 15.69

Returns the measured Amount of TXB2 release (%) for the input compound. Input: COc1ccc(CCNC(=O)/C=C(\C)c2ccc(OC(C)c3ccccc3)c3oc(C(C)=O)cc23)cc1OC (stereo not drawn) [Example 8] 41.73

Requested field: Amount of TXB2 release (%). Item: CCN(CC)C(=O)/C=C(\C)c1ccc(OCCCC(=O)O)c2oc(/C(C)=C/C(=O)O)cc12 [Example 2] 5.77

Which value of Amount of TXB2 release (%) has been reported for CCOC(=O)CCCOc1cccc2cc(/C(C)=C/C(=O)NCC(=O)OCC)oc12 [Example 40] in the records? −0.18

Which measured Amount of TXB2 release (%) value corresponds to CC(=O)c1oc2ccc(Br)cc2c1NC(=O)/C=C/c1ccccc1 [Example 114] ? 51.42

What Amount of TXB2 release (%) value was documented for this compound, CCN(CC)C(=O)/C=C(\C)c1ccc2oc(C(C)=O)c(NC(=O)/C(C#N)=C(/C)O)c2c1 [Example 94] ? −0.1

Query: Amount of TXB2 release (%); subject: COc1ccc(CCNC(=O)/C=C(\C)c2ccc3oc(C(C)=O)c(NC(=O)c4cnoc4C)c3c2)cc1OC [Example 72] 84.46

Using the record for COc1cccc(NC(=O)/C=C/C=C(\Cl)c2cc3cccc(OC)c3o2)c1 [Example 57] , report its Amount of TXB2 release (%). 78.01

Please report the recorded Amount of TXB2 release (%) for CCN(CC)C(=O)/C=C(\C)c1cc2cccc(OC(C)C)c2o1 [Example 33] . −0.199

====

Readout type: melting point

For N#C/C=C/C=C(\Cl)c1cc2cc(Br)ccc2o1 [Example 154] , what is its reported melting point? 179 to 185 °C

Which value of melting point has been reported for N#Cc1oc2ccc(Br)cc2c1NC(=O)/C=C/c1ccccc1 [Example 122] in the records? 240.2 to 242 °C

Name the recorded melting point for COc1cccc(NC(=O)/C=C(\C)c2cc3c(S(=O)(=O)NCCc4ccc(OC)c(OC)c4)ccc(OCCCCl)c3o2)c1 [Example 51] . 162.2 to 164.5 °C

For the molecule CCOC(=O)/C=C/C=C(\Cl)c1cc2cc(Br)ccc2o1 [Example 159] , what melting point is on record? 109 to 113 °C

Recorded melting point of COc1ccc(CCNC(=O)/C=C(\C)c2ccc3oc(C(C)=O)cc3c2)cc1OC [Example 26] , please. 112.7 to 114.3 °C

For Cc1nc(-c2cc3cc(Br)ccc3o2)cs1 [Example 216] , what is its reported melting point? 167.4 to 167.9 °C

// query melting point value for entry CC(=O)c1cc2c(/C(C)=C/C(=O)N3CCN(Cc4ccccc4)CC3)ccc(OC(c3ccccc3)c3ccccc3)c2o1 [Example 12] 132.1 to 136.5 °C

Consider the molecule shown here: CC(=O)c1cc2c(/C(C)=C/C(=O)N3CCN(Cc4ccccc4)CC3)ccc(OC(C)c3ccccc3)c2o1 (centres unmarked) [Example 10] What is its recorded melting point? 196 to 202.1 °C

Item Cc1oncc1C(=O)Nc1c(C#N)oc2ccccc12 [Example 86] has what recorded melting point? 227.3 to 230.4 °C

Query: melting point; subject: COc1ccc2oc(-c3csc(NC(=O)/C(C#N)=C(/C)O)n3)c(-c3ccc(Cl)cc3)c2c1 [Example 222] 229.5 to 231 °C

# query: melting point of entry CCN(CC)C(=O)/C=C(\C)c1ccc2oc(C(=O)Nc3cccc(OC)c3)c(NC(=O)/C(C#N)=C(/C)O)c2c1 [Example 189] 172 to 174 °C

Fill in: melting point of COc1ccc(CCNC(=O)/C=C(\C)c2ccc3oc(C(=O)c4ccccc4)cc3c2)cc1OC [Example 24] is ___ 126.9 to 129.4 °C

# melting point lookup, item O=C(O)CCCOc1cccc2cc(C(Cl)=CC=CC(=O)N3CCOCC3)oc12 (stereo in doubt) [Example 147] 152.5 to 154.8 °C

# input molecule: CCOC(=O)c1oc2ccc(/C(C)=C/C(=O)N(CC)CC)cc2c1N [Example 15] ; wanted: its melting point 159.5 to 162 °C

Which melting point value belongs to COc1ccc(/C=C/C(=O)Nc2c(C(C)=O)oc3ccc(Br)cc23)cc1 [Example 178] ? 182.5 to 184.7 °C

Fill blank: measured melting point of the molecule CCOC(=O)c1oc2ccc(Br)cc2c1NC(=O)/C(C#N)=C(/C)O [Example 97] is ____. 186.3 to 187.2 °C

Item CC(=O)c1oc2ccc(Br)cc2c1NC(=O)/C=C/c1ccccc1 [Example 114] has what recorded melting point? 180.2 to 181.1 °C
